B1: HDV Ribozyme (parent)
chain: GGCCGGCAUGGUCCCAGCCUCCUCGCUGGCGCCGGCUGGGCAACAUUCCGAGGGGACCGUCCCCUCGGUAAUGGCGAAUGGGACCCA

Variants of: B1
Experiment: self-cleavage, relative activity (ratio to wild type); higher = more cleavage; co-transcriptional
experimental_endpoint: self-cleavage

C33U A83U : 0.415
U12A G50U : 0.767
G31C G52U : 0.391
G2C U60A : 0.0779
C3U A77G : 0.739
G1A C7A : 0.191
C13U C58U : 0.403
U69A U79A : 0.665
A43C G80C : 0.194
U60C U79G : 0.554
U65A G82U : 0.217
A45C U46A : 0.499
U20G U23C : 0
C3U C75U : 0.197
A16G G59A : 1.29
U60A A70G : 0.77
C15A C48G : 0.475
G10C C26U : 0.997
G34C A78G : 0.0755
G17U G68A : 0.478
C14A C19A : 0.0639
U9A U69G : 1.06
C18A U69C : 0.138
U46C C49A : 0.54
C24A G54A : 0.774
C62U G67U : 1.02
